# maps each entry to its solubility at 1 h
method_description: Aqueous solubility of the compound after 1 hrs by HPLC-UV method
Type: physicochemical
protocol_conditions: deionized water
Give a bare numeral; the unit µg/mL is implied.

Some solved cases for reference:
smiles_string: COc1ccc(/C=C\c2cc(OC)c(OC)c(OC)c2)cc1O[C@H]1O[C@H](CO)[C@@H](O)[C@H](O)[C@@H]1O
solubility at 1 h, µg/mL: 5890
//
smiles_string: COc1ccc(/C=C\c2cc(OC)c(OC)c(OC)c2)cc1O[C@@H]1O[C@H](CO)[C@H](O)[C@H](O)[C@H]1O
solubility at 1 h, µg/mL: 2560

# solubility at 1 h of COc1ccc(/C=C\c2cc(OC)c(OC)c(OC)c2)cc1O = 3

# solubility at 1 h of COc1ccc(/C=C\c2cc(OC)c(OC)c(OC)c2)cc1O[C@@H]1O[C@H](CO)[C@@H](O)[C@H](O)[C@H]1O = 1830

---

method_description: Toxicity in ip dosed DBA/2 mouse assessed as reduction in 15% body weight administered as daily dose for 3 days
Type: organism-based
protocol_conditions: in vivo
property_name: MTD at 72 h (mg/kg)
Give a bare numeral; the unit mg/kg is implied.

smiles_string: COc1ccc(/C=C\c2cc(OC)c(OC)c(OC)c2)cc1O[C@@H]1O[C@H](CO)[C@@H](O)[C@H](O)[C@H]1O
MTD at 72 h, mg/kg: 400
//
smiles_string: COc1ccc(/C=C\c2cc(OC)c(OC)c(OC)c2)cc1O[C@H]1O[C@H](CO)[C@@H](O)[C@H](O)[C@@H]1O
MTD at 72 h, mg/kg: 400
//
smiles_string: COc1ccc(/C=C\c2cc(OC)c(OC)c(OC)c2)cc1O[C@@H]1O[C@H](CO)[C@H](O)[C@H](O)[C@H]1O
MTD at 72 h, mg/kg: 550

// below: MTD at 72 h requested for another compound
# MTD at 72 h of COc1ccc(/C=C\c2cc(OC)c(OC)c(OC)c2)cc1O = 25

---

tested_on: Solute carrier organic anion transporter family member 1B3 (Homo sapiens, UniProt Q9NPD5)
Sequence (Q9NPD5 whole entry): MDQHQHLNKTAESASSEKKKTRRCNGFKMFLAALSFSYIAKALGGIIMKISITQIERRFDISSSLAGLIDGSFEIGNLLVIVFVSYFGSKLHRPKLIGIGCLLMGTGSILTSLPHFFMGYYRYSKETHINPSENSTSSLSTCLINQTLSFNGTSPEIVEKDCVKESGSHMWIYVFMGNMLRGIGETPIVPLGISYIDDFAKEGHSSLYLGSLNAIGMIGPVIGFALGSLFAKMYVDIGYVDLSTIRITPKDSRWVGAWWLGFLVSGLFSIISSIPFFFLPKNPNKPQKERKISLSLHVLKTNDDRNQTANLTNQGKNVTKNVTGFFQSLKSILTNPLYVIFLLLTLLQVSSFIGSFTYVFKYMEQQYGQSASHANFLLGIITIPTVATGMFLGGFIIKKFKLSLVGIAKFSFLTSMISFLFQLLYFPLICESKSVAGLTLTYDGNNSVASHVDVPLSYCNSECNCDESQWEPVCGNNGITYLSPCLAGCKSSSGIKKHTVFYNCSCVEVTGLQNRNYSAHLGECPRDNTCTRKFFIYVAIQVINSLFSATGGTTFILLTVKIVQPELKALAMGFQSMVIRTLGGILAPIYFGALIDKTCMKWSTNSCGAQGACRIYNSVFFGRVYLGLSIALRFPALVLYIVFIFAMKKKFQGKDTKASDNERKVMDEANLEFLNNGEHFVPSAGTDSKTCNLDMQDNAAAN
method_description: Inhibition of human OATP1B3 expressed in HEK293 cells assessed as FMTX uptake after 5 mins by fluorescence assay
property_name: IC50 (µM)
Give a bare numeral; the unit µM is implied.

# IC50 of COc1ccc(/C=C\c2cc(OC)c(OC)c(OC)c2)cc1O = 195

---

tested_on: Solute carrier family 22 member 1 (Homo sapiens, UniProt O15245)
Sequence (O15245 whole entry): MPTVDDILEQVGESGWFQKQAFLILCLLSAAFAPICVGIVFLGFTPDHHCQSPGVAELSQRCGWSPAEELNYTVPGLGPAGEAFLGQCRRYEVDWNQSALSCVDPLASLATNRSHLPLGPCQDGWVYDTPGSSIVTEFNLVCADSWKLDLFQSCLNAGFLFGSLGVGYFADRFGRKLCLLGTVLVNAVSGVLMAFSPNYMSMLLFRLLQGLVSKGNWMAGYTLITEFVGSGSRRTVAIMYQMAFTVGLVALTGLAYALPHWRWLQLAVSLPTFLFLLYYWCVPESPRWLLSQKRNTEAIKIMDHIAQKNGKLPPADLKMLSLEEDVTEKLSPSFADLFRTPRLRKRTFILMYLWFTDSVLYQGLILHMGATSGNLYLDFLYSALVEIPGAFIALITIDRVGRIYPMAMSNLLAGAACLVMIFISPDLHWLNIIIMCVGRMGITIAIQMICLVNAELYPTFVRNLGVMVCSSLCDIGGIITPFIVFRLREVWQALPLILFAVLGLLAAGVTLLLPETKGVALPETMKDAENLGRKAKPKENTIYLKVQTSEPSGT
method_description: Inhibition of human OCT1 expressed in HEK293 cells assessed as Asp+ uptake after 10 mins by fluorescence assay
Assay type: cell-based
property_name: IC50

smiles_string: COc1ccc(/C=C\c2cc(OC)c(OC)c(OC)c2)cc1O
IC50: > 200 µM

# IC50 of COc1ccc(/C=C\c2cc(OC)c(OC)c(OC)c2)cc1O[C@@H]1O[C@H](CO)[C@@H](O)[C@H](O)[C@H]1O = > 200 µM

---

tested_on: Solute carrier family 22 member 2 (Homo sapiens)
Sequence (O15244 whole entry): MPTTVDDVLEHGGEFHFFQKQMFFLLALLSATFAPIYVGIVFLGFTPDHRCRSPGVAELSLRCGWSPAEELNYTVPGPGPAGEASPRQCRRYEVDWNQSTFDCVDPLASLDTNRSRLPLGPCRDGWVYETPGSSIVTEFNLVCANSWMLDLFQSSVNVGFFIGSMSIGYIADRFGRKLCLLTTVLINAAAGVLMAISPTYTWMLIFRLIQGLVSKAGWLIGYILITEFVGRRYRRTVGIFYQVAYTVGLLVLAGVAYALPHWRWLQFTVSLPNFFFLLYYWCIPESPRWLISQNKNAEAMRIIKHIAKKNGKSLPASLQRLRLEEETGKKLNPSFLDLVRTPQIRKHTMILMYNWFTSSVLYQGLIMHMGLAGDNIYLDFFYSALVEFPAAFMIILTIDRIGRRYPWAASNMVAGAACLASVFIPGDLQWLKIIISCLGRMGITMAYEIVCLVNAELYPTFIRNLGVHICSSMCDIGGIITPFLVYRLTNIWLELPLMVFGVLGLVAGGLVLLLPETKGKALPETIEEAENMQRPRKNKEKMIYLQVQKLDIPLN
method_description: Inhibition of human OCT2 expressed in HEK293 cells assessed as Asp+ uptake after 10 mins by fluorescence assay
Assay type: cell-based
property_name: pIC50
Keep it numeric: pIC50 is minus log10 of the concentration in mol/L.

# pIC50 of COc1ccc(/C=C\c2cc(OC)c(OC)c(OC)c2)cc1O = 4.21

---

tested_on: UniProt:O94956
Sequence (O94956 whole entry): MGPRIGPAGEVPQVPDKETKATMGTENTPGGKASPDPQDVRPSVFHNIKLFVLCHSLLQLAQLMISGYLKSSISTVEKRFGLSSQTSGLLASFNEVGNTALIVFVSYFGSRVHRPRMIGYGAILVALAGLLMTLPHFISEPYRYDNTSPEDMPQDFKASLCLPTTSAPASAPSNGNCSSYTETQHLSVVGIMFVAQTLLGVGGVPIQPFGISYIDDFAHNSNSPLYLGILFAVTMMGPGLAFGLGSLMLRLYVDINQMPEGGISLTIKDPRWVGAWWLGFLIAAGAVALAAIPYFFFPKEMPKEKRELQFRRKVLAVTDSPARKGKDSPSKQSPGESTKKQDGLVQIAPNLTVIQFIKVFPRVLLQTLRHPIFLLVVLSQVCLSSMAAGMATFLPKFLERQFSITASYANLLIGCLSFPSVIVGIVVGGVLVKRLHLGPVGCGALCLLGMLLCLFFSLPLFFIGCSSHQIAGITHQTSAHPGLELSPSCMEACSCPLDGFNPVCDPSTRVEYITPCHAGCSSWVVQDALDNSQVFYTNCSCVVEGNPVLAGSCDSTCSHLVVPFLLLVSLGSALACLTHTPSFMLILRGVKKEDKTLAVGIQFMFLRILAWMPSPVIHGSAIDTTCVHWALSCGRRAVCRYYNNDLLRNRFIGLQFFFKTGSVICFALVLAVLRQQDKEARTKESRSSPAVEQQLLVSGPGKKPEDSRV
method_description: Inhibition of human OATP2B1 expressed in HEK293 cells assessed as DBF uptake after 5 mins by fluorescence assay
property_name: pIC50
Keep it numeric: pIC50 is minus log10 of the concentration in mol/L.

Considering COc1ccc(/C=C\c2cc(OC)c(OC)c(OC)c2)cc1O [COMBRETASTATIN A4] , its pIC50 with UniProt:O94956 was recorded as 4.91

Origin of the recorded values: ChEMBL document CHEMBL4257448
